Source listed as patent US20080214537A1.

- TARGET: human CB1 receptor (hCB1) (Homo sapiens, UniProt P21554)
- Sequence (P21554 whole entry): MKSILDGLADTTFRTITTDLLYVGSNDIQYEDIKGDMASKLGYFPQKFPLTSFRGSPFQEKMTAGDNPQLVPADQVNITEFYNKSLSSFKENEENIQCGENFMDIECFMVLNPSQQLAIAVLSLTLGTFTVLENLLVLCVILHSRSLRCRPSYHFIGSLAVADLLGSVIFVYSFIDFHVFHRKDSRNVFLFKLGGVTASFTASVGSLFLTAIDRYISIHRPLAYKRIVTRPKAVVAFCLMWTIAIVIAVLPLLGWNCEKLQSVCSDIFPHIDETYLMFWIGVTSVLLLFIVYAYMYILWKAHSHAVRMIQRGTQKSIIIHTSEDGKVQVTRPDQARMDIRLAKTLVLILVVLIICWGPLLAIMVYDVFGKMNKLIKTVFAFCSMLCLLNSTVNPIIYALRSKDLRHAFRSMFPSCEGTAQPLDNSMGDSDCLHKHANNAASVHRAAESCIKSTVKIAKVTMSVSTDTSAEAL
- EXPERIMENTAL PROTOCOL: cAMP assay (LANCE TR-FRET) in CHO-K1 cells expressing hCB1
- Type: cell-based
- CONDITION CONTEXT: CHO-K1, percent of range defined by CP55,940 (1 μM = 100%); activity on hCB1 represents inverse agonism; read-out: hCB1 % Max Range
- Protocol: The ability of compounds to act as agonists or inverse agonists at human CB2 and CB1 receptors (hCB2, hCB1, respectively) was determined by measuring changes in intracellular cAMP levels. […] Receptor mediated responses were determined by measuring changes in intracellular cAMP using LANCE cAMP detection kit (catalog #AD0264, PerkinElmer, Wellesley, Mass.) based on time-resolved fluorescence resonance energy transfer (TR-FRET). […]
RECORDED ENDPOINT: Emax

# O=S(=O)(c1ccc2c(c1)C1C3CCC(C3)C1C(c1cncnc1)N2)N1CCOCC1 (stereo not drawn) with human CB1 receptor (hCB1) (Homo sapiens, UniProt P21554): Emax is < 40%

# CN(C)S(=O)(=O)c1ccc2c(c1)C1C3CCC(C3)C1C(c1nccs1)N2 (stereo not drawn) with human CB1 receptor (hCB1) (Homo sapiens, UniProt P21554): Emax is < 40%

# NS(=O)(=O)c1ccc2c(c1)C1C3CCC(C3)C1C(c1ccccc1)N2 (stereo not drawn) with human CB1 receptor (hCB1) (Homo sapiens, UniProt P21554): Emax is 172%

# O=S(=O)(c1ccc2c(c1)C1C3CCC(C3)C1C(c1nccs1)N2)N1CCOCC1 (stereo not drawn) with human CB1 receptor (hCB1) (Homo sapiens, UniProt P21554): Emax is < 40%

# CCCNC(=S)Nc1ccc2c(c1)C1C3CCC(C3)C1C(c1ccccc1)N2 (stereo not drawn) with human CB1 receptor (hCB1) (Homo sapiens, UniProt P21554): Emax is 53%

# O=C(Nc1ccc2c(c1)C1C3CCC(C3)C1C(c1ccccc1)N2)c1cocn1 (stereo not drawn) with human CB1 receptor (hCB1) (Homo sapiens, UniProt P21554): Emax is < 40%

# Cc1ccc(C2Nc3ccc(N4CCOCC4)cc3C3C4CCC(C4)C23)cc1 (stereo not drawn) with human CB1 receptor (hCB1) (Homo sapiens, UniProt P21554): Emax is < 40%

# CCCCC(=O)Nc1ccc2c(c1)C1C3CCC(C3)C1C(c1ccccc1)N2 (stereo not drawn) with human CB1 receptor (hCB1) (Homo sapiens, UniProt P21554): Emax is < 40%

# CC(=O)Nc1ccc(C2Nc3ccc(S(=O)(=O)N(C)C)cc3C3C4CCC(C4)C23)cc1 (stereo not drawn) with human CB1 receptor (hCB1) (Homo sapiens, UniProt P21554): Emax is < 40%

###

- TARGET: human CB2 receptor (hCB2) (Homo sapiens)
- EXPERIMENTAL PROTOCOL: cAMP assay (LANCE TR-FRET) in CHO-K1 cells expressing hCB2
- CONDITION CONTEXT: CHO-K1 cells stably expressing hCB2; intracellular cAMP, NKH-477 prestimulated; average of at least three replicates
RECORDED ENDPOINT: log10 EC50 (log10 of the value in nM)
Answers are given as log10 of EC50 in nM.

Worked examples, 3 molecules total:
- MOLECULE: "CC(=O)NS(=O)(=O)c1ccc2c(c1)C1C3CCC(C3)C1C(c1ccnn1C)N2 (stereo not drawn)"
  log10 EC50: 3.17
- MOLECULE: "Cc1nc(-c2ccc3c(c2)C2C4CCC(C4)C2C(c2ccnn2C)N3)cs1 (stereo not drawn)"
  log10 EC50: 2.27
- MOLECULE: "O=S(=O)(c1ccc2c(c1)C1CC=CC1C(c1ccccc1)N2)N1CCCCC1 (stereo not drawn)"
  log10 EC50: 1.87

API: the following record is the query input.
# O=S(=O)(c1ccc2c(c1)C1C3CCC(C3)C1C(c1ccccc1)N2)N1CCCCC1 (stereo not drawn) with human CB2 receptor (hCB2) (Homo sapiens): log10 EC50 is -0.42

###

compounds and their reported Emax
- TARGET: human CB1 receptor (hCB1) (Homo sapiens, UniProt P21554)
- EXPERIMENTAL PROTOCOL: cAMP assay (LANCE TR-FRET) in CHO-K1 cells expressing hCB1
- Assay type: cell-based
- CONDITION CONTEXT: CHO-K1, percent of range defined by CP55,940 (1 μM = 100%); activity on hCB1 represents inverse agonism; read-out: hCB1 % Max Range

Worked examples, 4 compounds total:
- COMPOUND: "O=C(CC1CCCO1)Nc1ccc2c(c1)C1C3CCC(C3)C1C(c1ccccc1)N2 (stereo not drawn) [(14)]"
  Emax: "< 40%"
- COMPOUND: "O=S(=O)(c1ccc2c(c1)C1CC=CC1C(c1ccccc1)N2)N1CCCCC1 (stereo not drawn) [(48)]"
  Emax: "< 40%"
- COMPOUND: "CN(C)S(=O)(=O)c1ccc2c(c1)C1C3CCC(C3)C1C(c1ccnn1C)N2 (stereo not drawn) [(33)]"
  Emax: "< 40%"
- COMPOUND: "Cn1nccc1C1Nc2ccc(S(=O)(=O)N3CCOCC3)cc2C2C3CCC(C3)C12 (stereo not drawn) [(37)]"
  Emax: "< 40%"

Measured Emax, CN(C)S(=O)(=O)c1ccc2c(c1)C1CC=CC1C(c1ccccc1)N2 (stereo not drawn) [(49)] : 61.8%

Measured Emax, Cc1nc(-c2ccc3c(c2)C2C4CCC(C4)C2C(c2ccnn2C)N3)cs1 (stereo not drawn) [(44)] : 111%

Measured Emax, Cc1ccc(C2Nc3ccc(NC(=O)CC4CCCO4)cc3C3C4CCC(C4)C23)cc1 (stereo not drawn) [(16)] : < 40%

Measured Emax, CCCNC(=S)Nc1ccc2c(c1)C1C3CCC(C3)C1C(c1ccc(C)cc1)N2 (stereo not drawn) [(8)] : 63%

Measured Emax, CCCCC(=O)Nc1ccc2c(c1)C1C3CCC(C3)C1C(c1ccc(C)cc1)N2 (stereo not drawn) [(29)] : < 40%

###

- TARGET: human CB1 receptor (hCB1) (Homo sapiens, UniProt P21554)
- EXPERIMENTAL PROTOCOL: cAMP assay (LANCE TR-FRET) in CHO-K1 cells expressing hCB1
- CONDITION CONTEXT: CHO-K1 cells stably expressing hCB1; intracellular cAMP, NKH-477 prestimulated; activity on hCB1 represents inverse agonism
RECORDED ENDPOINT: EC50

Worked examples, 5 compounds total:
- COMPOUND: "CC(C)S(=O)(=O)N1c2ccc(S(=O)(=O)N(C)C)cc2C2C3CCC(C3)C2C1c1ccccc1 (stereo not drawn) [(50)]"
  TARGET: "human CB1 receptor (hCB1) (Homo sapiens, UniProt P21554)"
  EC50: "> 10 µM"
- COMPOUND: "O=S(=O)(c1ccc2c(c1)C1C3CCC(C3)C1C(c1nccs1)N2)N1CCOCC1 (stereo not drawn) [(36)]"
  TARGET: "human CB1 receptor (hCB1) (Homo sapiens, UniProt P21554)"
  EC50: "> 10 µM"
- COMPOUND: "Cc1ccc(C2Nc3ccc(S(=O)(=O)N4CCCCC4)cc3C3C4CCC(C4)C23)cc1 (stereo not drawn) [(10)]"
  TARGET: "human CB1 receptor (hCB1) (Homo sapiens, UniProt P21554)"
  EC50: "> 10 µM"
- COMPOUND: "CN(C1CCCCC1)S(=O)(=O)c1ccc2c(c1)C1C3CCC(C3)C1C(c1ccccc1)N2 (stereo not drawn) [(38)]"
  TARGET: "human CB1 receptor (hCB1) (Homo sapiens, UniProt P21554)"
  EC50: "> 10 µM"
- COMPOUND: "O=C(Nc1ccc2c(c1)C1C3CCC(C3)C1C(c1c(Cl)cccc1Cl)N2)C1CC1 (stereo not drawn) [(20)]"
  TARGET: "human CB1 receptor (hCB1) (Homo sapiens, UniProt P21554)"
  EC50: "> 10 µM"

Measured EC50, CCCNC(=O)Nc1ccc2c(c1)C1C3CCC(C3)C1C(c1ccccc1)N2 (stereo not drawn) [Compound (5d)] : 2.15 µM

###

- TARGET: human CB2 receptor (hCB2) (Homo sapiens, UniProt P34972)
- Sequence (P34972 whole entry): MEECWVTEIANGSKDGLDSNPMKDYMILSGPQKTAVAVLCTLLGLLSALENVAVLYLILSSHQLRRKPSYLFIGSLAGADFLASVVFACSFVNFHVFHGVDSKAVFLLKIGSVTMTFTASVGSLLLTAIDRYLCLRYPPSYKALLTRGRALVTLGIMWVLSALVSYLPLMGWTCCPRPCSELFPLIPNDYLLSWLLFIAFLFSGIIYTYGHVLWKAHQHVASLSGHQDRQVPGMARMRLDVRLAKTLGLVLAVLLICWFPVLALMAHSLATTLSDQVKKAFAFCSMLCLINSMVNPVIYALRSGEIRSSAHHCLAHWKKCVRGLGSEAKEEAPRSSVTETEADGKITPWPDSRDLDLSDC
- EXPERIMENTAL PROTOCOL: cAMP assay (LANCE TR-FRET) in CHO-K1 cells expressing hCB2
- Format: cell-based
- CONDITION CONTEXT: CHO-K1; intrinsic activity: percent maximal activation compared to full activation by CP55,940 (1 μM = 100%); read-out: hCB2 % Max Range
RECORDED ENDPOINT: Emax

- COMPOUND: "CCCNC(=S)Nc1ccc2c(c1)C1C3CCC(C3)C1C(c1c(Cl)cccc1Cl)N2 (stereo not drawn) [(27)]"
  Emax: "< 40%"
- COMPOUND: "CCCNC(=S)Nc1ccc2c(c1)C1C3CCC(C3)C1C(c1ccc(C)cc1)N2 (stereo not drawn) [(8)]"
  Emax: "< 40%"

API: the following record is the query input.
# CC(=O)Nc1ccc2c(c1)C1C3CCC(C3)C1C(c1c(Cl)cccc1Cl)N2 (stereo not drawn) [(24)] with human CB2 receptor (hCB2) (Homo sapiens, UniProt P34972): Emax is < 40%
